The origin of these recorded values is PubChem BioAssay AID1745848.

test_protocol: Confirmatory qHTS for Inhibitors of ATXN expression; further: nearly all actives have a fitted effect of over 65% in size
recorded_conditions: ATXN2-luciferase reporter cells, luminescence, 24 h; series mostly up to 11.5 µM
Excerpt: PI: Daniel Scoles Ph.D. University of Utah School of Medicine, Salt Lake City, Utah MLPCN Grant: NS073009 Spinocerebellar ataxia type 2 (SCA2) is a multisystem neurodegenerative disease caused by a dominantly acting mutation leading to expansion of a polyQ domain in the ataxin-2 protein (ATXN2). SCA2 patients develop progressive ataxia and later lose function in other neuronal systems. […] Here we describe a 5-7 dose quantitative high thoroughput screen (qHTS) for compounds lowering ATXN2 expression. […]
In all, about 2,100 compounds went through this assay and about 940 (45%) were called active. Another 48% or so got no clear call; they are omitted. The call rests on the fitted dose curve; in most records, active means well fitted inhibition curve with a large enough effect; inconclusive means small, poorly fitted or top-dose-only effect; inactive means no such curve, though single readings can be large or run the other way. So high a share suggests a set chosen from earlier hits. The list shows a part of the results.
Answer with one of the outcomes given here: 1 for active, -1 for inactive

Worked examples, 6 molecules total:
>  <molecule>
CCCCOc1ccc(CSC(=N)N)cc1Cl

>  <cat>
1

$$$$
>  <molecule>
O=C(c1ccco1)N1CCN(c2ncnc3scc(-c4cccs4)c23)CC1

>  <cat>
-1

$$$$
>  <molecule>
CC(=O)c1cccc(-c2csc3ncnc(Sc4nnnn4C)c23)c1

>  <cat>
1

$$$$
>  <molecule>
Cc1ccc(Cc2cnc(N3C(=N)SC(C)C3=O)s2)cc1 (stereo unspecified)

>  <cat>
-1

$$$$
>  <molecule>
Cn1nnnc1Sc1ncnc2scc(-c3ccc[nH]3)c12

>  <cat>
1

$$$$
>  <molecule>
Cn1nnnc1Sc1ncnc2scc(-c3ccccc3Cl)c12

>  <cat>
1

$$$$

Input line: What call does the record list for COc1cccc2c1C(=O)c1c(O)c3c(c(O)c1C2=O)C[C@](O)(C(C)=O)C[C@H]3O[C@@H]1C[C@@H](N)[C@@H](O)[C@@H](C)O1 ?
Output line: 1

Input line: What call does the record list for Cn1nnnc1Sc1ncnc2scc(Br)c12 ?
Output line: 1

Input line: What call does the record list for O=[N+]([O-])c1c(Nc2ccccn2)cc(Cl)c2nonc12 ?
Output line: 1

Input line: What call does the record list for CCCCCCn1c2c(c(=N)c3c1CCC3)CCC2 ?
Output line: 1

Input line: What call does the record list for Cc1nn(-c2ccccc2)c2nc(-c3cccs3)cc(C(=O)NN)c12 ?
Output line: 1

----------
test_protocol: Confirmatory qHTS for Inhibitors of ATXN expression; further: nearly all actives have a fitted effect of over 65% in size; further: potency means the concentration at half of the fitted maximal effect
recorded_conditions: ATXN2-luciferase reporter cells, luminescence, 24 h; series mostly up to 11.5 µM
The campaign covered roughly 2,100 compounds. About 940 (45%) were called active. Roughly 48% stayed inconclusive and do not appear here. So high a share suggests a set chosen from earlier hits. The list shows a part of the results.
metric: Potency

Worked set:
>  <compound>
CC(C)C1Cc2c(sc3[nH]c(=S)n(Cc4ccccc4)c(=O)c23)CO1 (stereo not given)

>  <Potency>
12.6 µM (active)

$$$$
>  <compound>
O=C(CSC1=NNC(c2ccccn2)S1)Nc1ccc(C(F)(F)F)cc1 (stereo not given)

>  <Potency>
28.2 µM (active)

$$$$
>  <compound>
CCSc1nc2ccccc2n1C(=O)/C=C\c1ccc(OC)c(OC)c1

>  <Potency>
8.91 µM (active)

$$$$
>  <compound>
CN1C2CCC1/C(=C\c1ccccc1)C(=O)/C2=C\c1ccccc1

>  <Potency>
14.1 µM (active)

$$$$

Shift focus to the following entry.
Lookup result for O=C(NCc1ccccc1C(F)(F)F)c1cccc2c1C(=O)c1ccc(N3CCC(N4CCCCC4)CC3)cc1S2(=O)=O ; measured Potency: 3.16 µM (active)

----------
test_protocol: Confirmatory qHTS for Inhibitors of ATXN expression; further: nearly all actives have a fitted effect of over 65% in size
recorded_conditions: ATXN2-luciferase reporter cells, luminescence, 24 h; series mostly up to 11.5 µM
About 940 (45%) of roughly 2,100 compounds were called active. Inconclusive results (about 48%) are left out. Calls follow the shape of the dose curve; as a rule, active = well fitted inhibition curve with a large enough effect; inconclusive = small, poorly fitted or top-dose-only effect; inactive = no such curve, though single readings can be large or run the other way. The set was probably picked from earlier hits. This is one part of the list.
Answer with one of the outcomes given here: active, inactive

Worked examples, 5 molecules total:
>  <molecule>
CCOc1ccccc1N1CCN(c2ncnc3scc(-c4ccc(OC)cc4)c23)CC1

>  <cat>
active

$$$$
>  <molecule>
O=C(Nc1ccc(F)cc1)Nc1cc(OCC(F)(F)F)cc(OCC(F)(F)F)c1

>  <cat>
active

$$$$
>  <molecule>
CC[n+]1c(/C=C/c2c[nH]c3ccccc23)ccc2cc(C)ccc21

>  <cat>
active

$$$$
>  <molecule>
COc1ccc(/C=C2\SC(=S)N(CCCC(=O)Nc3ccccn3)C2=O)cc1OC

>  <cat>
active

$$$$
>  <molecule>
CC(Oc1ccc(Cl)cc1)C(=O)NNC(=S)NC(=O)c1ccco1 (stereo unspecified)

>  <cat>
active

$$$$

Input line: What call does the record list for CCOc1ccc(/C=C/[N+](=O)[O-])c2ccccc12 ?
Output line: active

Input line: What call does the record list for COc1cc(CC(=O)Nc2nc(-c3ccc(F)c(F)c3)cs2)cc(OC)c1OC ?
Output line: active

Input line: What call does the record list for Cc1ccccc1C(=O)/C(C#N)=N/Nc1c(C)n(C)n(-c2ccccc2)c1=O ?
Output line: active

----------
test_protocol: Confirmatory qHTS for Inhibitors of ATXN expression; further: nearly all actives have a fitted effect of over 65% in size
recorded_conditions: ATXN2-luciferase reporter cells, luminescence, 24 h; series mostly up to 11.5 µM
Hit rate of the full screen: of about 2,100 compounds, about 940 (45%) were called active. About 48% were inconclusive and are not listed. The call rests on the fitted dose curve; in most records, active means well fitted inhibition curve with a large enough effect; inconclusive means small, poorly fitted or top-dose-only effect; inactive means no such curve, though single readings can be large or run the other way. So high a share suggests a set chosen from earlier hits. Some of the results follow.
Answer with one of the outcomes given here: True = active, False = inactive

>  <molecule>
CCCC(=O)NC(c1ccc(C)cc1)c1ccc2cccnc2c1O (stereo unspecified)

>  <cat>
True

$$$$
>  <molecule>
Oc1ccc(C2CNCc3sccc32)cc1O (stereo unspecified)

>  <cat>
False

$$$$

Input line: What call does the record list for Cc1nc2c(OCc3cc(Cl)cc(Cl)c3)cccn2c1N(C)C(=O)CCC1CCCC1 ?
Output line: True

Input line: What call does the record list for O=C(CSc1ccc2ccccc2n1)N/N=C/c1ccccc1O ?
Output line: True

Input line: What call does the record list for Cc1cc(SCC(=O)NN)c2cc(Br)ccc2n1 ?
Output line: False

Input line: What call does the record list for CCn1c2ccccc2c2cc(C3C(C#N)=C(N)Oc4n[nH]c(COC)c43)ccc21 (stereo unspecified) ?
Output line: True

Input line: What call does the record list for Cc1nnc(-c2ccccc2)c(=O)n1/N=C/c1c(O)ccc2ccccc12 ?
Output line: True

Input line: What call does the record list for CCc1nc2c(OCCOc3ccc(F)cc3)cccn2c1N(C)C(=O)c1ccco1 ?
Output line: False

Input line: What call does the record list for Cc1cc(C)c2c(N)c3cccc(C)c3nc2n1 ?
Output line: True

Input line: What call does the record list for Cc1nc(SCC(=O)Nc2ccc(S(=O)(=O)N3CCOCC3)cc2)c2c(C)c(C)sc2n1 ?
Output line: True

Input line: What call does the record list for CC(O)(c1ccccc1)c1nc(-c2ccncc2)cs1 (stereo unspecified) ?
Output line: False

----------
test_protocol: Confirmatory qHTS for Inhibitors of ATXN expression; further: nearly all actives have a fitted effect of over 65% in size
recorded_conditions: ATXN2-luciferase reporter cells, luminescence, 24 h; series mostly up to 11.5 µM
From the text: PI: Daniel Scoles Ph.D. University of Utah School of Medicine, Salt Lake City, Utah MLPCN Grant: NS073009 Spinocerebellar ataxia type 2 (SCA2) is a multisystem neurodegenerative disease caused by a dominantly acting mutation leading to expansion of a polyQ domain in the ataxin-2 protein (ATXN2). SCA2 patients develop progressive ataxia and later lose function in other neuronal systems. […] Here we describe a 5-7 dose quantitative high thoroughput screen (qHTS) for compounds lowering ATXN2 expression. […]
The campaign covered roughly 2,100 compounds. About 940 (45%) were called active. About 48% were inconclusive and are not listed. Calls come from the whole dose curve; as a rule, active = well fitted inhibition curve with a large enough effect; inconclusive = small, poorly fitted or top-dose-only effect; inactive = no such curve, though single readings can be large or run the other way. So high a share suggests a set chosen from earlier hits. The list shows a part of the results.
Answer with one of the outcomes given here: active, inactive

Worked examples, 5 molecules total:
>  <molecule>
COc1ccccc1C(=O)Nc1nc(-c2ccc(S(=O)(=O)N3CCOCC3)cc2)cs1

>  <cat>
active

$$$$
>  <molecule>
COc1ccc(/C=N/NC(=O)c2nc(-c3ccccc3)n(-c3ccccc3)n2)c(O)c1

>  <cat>
active

$$$$
>  <molecule>
NC(=O)N/N=C/c1c(O)ccc2oc3c(c12)CCCC3

>  <cat>
active

$$$$
>  <molecule>
Cc1ccc(/C=C2\SC(=S)N(CCCC(=O)NC3CCCC3)C2=O)cc1

>  <cat>
active

$$$$
>  <molecule>
Cc1cccc(/C=N/NC(=O)c2c(-c3ccccc3)noc2C)c1O

>  <cat>
active

$$$$

Input line: What call does the record list for Cc1ccc(/C=C2/SC(=S)N(CCCC(=O)Nc3cc([N+](=O)[O-])ccc3O)C2=O)cc1 ?
Output line: active

Input line: What call does the record list for Cc1ccc(N/C(N)=N/c2nc(C)cc(N3CCCCC3)n2)c(C)c1 ?
Output line: active

Input line: What call does the record list for O=c1oc2ccccc2c(O)c1Cc1cc(Cl)c2cccnc2c1O ?
Output line: active

Input line: What call does the record list for COc1ccc(/C=C/C(=O)Nc2cccc(S(=O)(=O)N3CCCC3)c2)cc1OC ?
Output line: inactive

Input line: What call does the record list for COc1ccc(Cn2cc3c(-c4ccc(F)cc4)nnc-3c3cc(OC)c(OC)cc32)cc1 ?
Output line: active

Input line: What call does the record list for CCN1CCN(c2ccc(S(=O)(=O)N3CCCCC3)cc2NC(=O)c2ccc([N+](=O)[O-])s2)CC1 ?
Output line: active

Input line: What call does the record list for FC(F)(F)c1cc(-c2ccccn2)nc2cc(-c3ccccc3)nn12 ?
Output line: inactive

Input line: What call does the record list for CCN(CC)CCC(=O)Nc1cccc2c1C(=O)c1ccccc1C2=O ?
Output line: active

Input line: What call does the record list for COc1ccc(C(=O)Nc2nc(-c3ccc(S(=O)(=O)N4CCOCC4)cc3)cs2)cc1 ?
Output line: active

Input line: What call does the record list for Cc1sc2ncnc(NCC(O)c3ccc([N+](=O)[O-])cc3)c2c1C (stereo unspecified) ?
Output line: active
